- TESTED ON: Human CXCR4 transfected HEK293 cells (Homo sapiens)
- Construct: expressed in transfected cells; host or cells: HEK293
- Sequence (P61073 whole entry): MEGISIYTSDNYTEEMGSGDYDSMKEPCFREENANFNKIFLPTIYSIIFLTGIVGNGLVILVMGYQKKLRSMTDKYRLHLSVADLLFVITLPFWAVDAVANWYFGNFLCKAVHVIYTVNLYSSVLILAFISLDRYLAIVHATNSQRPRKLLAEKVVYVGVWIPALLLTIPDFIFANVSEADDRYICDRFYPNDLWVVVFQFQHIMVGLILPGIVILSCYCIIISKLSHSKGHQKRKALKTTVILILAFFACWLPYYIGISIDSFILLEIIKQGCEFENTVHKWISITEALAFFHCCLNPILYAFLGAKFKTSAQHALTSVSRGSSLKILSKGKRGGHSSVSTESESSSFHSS
- PROTOCOL NOTES: CXCR4 functional calcium assay (calcium flux FLIPR, antagonism of SDF1 response)
- Type: cell-based
- STATED CONDITIONS: CXCR4 functional activity, antagonism of SDF1 (EC50 concentration), read-out: CXCR4 fKi
pKi: −log10 of the molar value.
MEASUREMENT TYPE: pKi

molecule=O=C(NCC1CC1)c1cccc(N2CCCN(C3CCN(C4CC4)CC3)CC2)n1 measurement_type=pKi observed_measurement="6.00 to 6.30"
molecule=Cc1cccc2nc(-c3cccc(N4CCCN(C5CCN(C(C)C)CC5)CC4)n3)[nH]c12 measurement_type=pKi observed_measurement="6.30 to 7.00"
molecule=CCCC(=O)c1cccc(N2CCCN(C3CCN(C(C)C)CC3)CC2)n1 measurement_type=pKi observed_measurement="6.30 to 7.00"
molecule=COc1ccccc1CN1CCC(N2CCCN(c3cccc(C(=O)NCC4CC4)n3)CC2)CC1 measurement_type=pKi observed_measurement="7.00 to 7.70"
molecule=O=C(NCC1CC1)c1cccc(N2CCCN(C3CCN([C@H]4CCc5ccccc54)CC3)CC2)n1 measurement_type=pKi observed_measurement="7.00 to 7.70"
molecule=CC(C)N1CCC(N2CCCN(c3cccc(-c4cc5ccncc5[nH]4)n3)CC2)CC1 measurement_type=pKi observed_measurement="7.00 to 7.70"
molecule="c1ccc2c(c1)CCC2N1CCC(N2CCCN(c3nccs3)CC2)CC1 (centres unmarked)" measurement_type=pKi observed_measurement="6.00 to 6.30"
molecule=[2H]C1([2H])CCN(c2cccc(C(=O)Nc3ccncc3)n2)CCN1C1CCN([C@@H](C)CC)CC1 measurement_type=pKi observed_measurement="> 7.70"
molecule=[2H]C1([2H])CCN(c2cccc(C(=O)NCC3CC3)n2)CCN1C1CCN(C(C)C)CC1 measurement_type=pKi observed_measurement="7.00 to 7.70"
molecule=C[C@H](N1CCC(N2CCCN(c3cccc(C(=O)NCc4cccnc4)n3)CC2)CC1)C(F)(F)F measurement_type=pKi observed_measurement="7.00 to 7.70"
molecule=CC(C)N1CCN(C)[C@H](CN2CCCN(c3cccc(C(=O)Nc4ccncc4)n3)CC2)C1 measurement_type=pKi observed_measurement="6.00 to 6.30"
molecule=CCCc1nc(-c2cccc(N3CCCN(C4CCN(C(C)C)CC4)CC3)n2)no1 measurement_type=pKi observed_measurement="7.00 to 7.70"
molecule=CC(C)N1CCC(N2CCCN(c3cccc(C(=O)Nc4cccnc4)n3)CC2)CC1 measurement_type=pKi observed_measurement="7.00 to 7.70"
molecule=CCNC(=O)c1cccc(N2CCCN(C3CCN(Cc4ccccc4Cl)CC3)CC2)n1 measurement_type=pKi observed_measurement="7.00 to 7.70"
molecule=O=C(NCC1CC1)c1cccc(N2CCCN(C3CCN(Cc4ccccc4Cl)CC3)CC2)n1 measurement_type=pKi observed_measurement="7.00 to 7.70"
molecule=Cc1nc(-c2cccc(NCCNC3CCN(C4CCCC4)CC3)n2)[nH]c1C1CC1 measurement_type=pKi observed_measurement="6.30 to 7.00"
molecule="CC(CC(F)(F)F)N1CCC(N2CCCN(c3cccc(C(=O)NCc4cccnc4)n3)CC2)CC1 (centres unmarked)" measurement_type=pKi observed_measurement="7.00 to 7.70"

Values from patent US10995091B2
